Cited source for all entries: ChEMBL document CHEMBL1134541

EXPERIMENTAL TARGET: 72 kDa type IV collagenase (Homo sapiens)
Sequence (P08253 whole entry): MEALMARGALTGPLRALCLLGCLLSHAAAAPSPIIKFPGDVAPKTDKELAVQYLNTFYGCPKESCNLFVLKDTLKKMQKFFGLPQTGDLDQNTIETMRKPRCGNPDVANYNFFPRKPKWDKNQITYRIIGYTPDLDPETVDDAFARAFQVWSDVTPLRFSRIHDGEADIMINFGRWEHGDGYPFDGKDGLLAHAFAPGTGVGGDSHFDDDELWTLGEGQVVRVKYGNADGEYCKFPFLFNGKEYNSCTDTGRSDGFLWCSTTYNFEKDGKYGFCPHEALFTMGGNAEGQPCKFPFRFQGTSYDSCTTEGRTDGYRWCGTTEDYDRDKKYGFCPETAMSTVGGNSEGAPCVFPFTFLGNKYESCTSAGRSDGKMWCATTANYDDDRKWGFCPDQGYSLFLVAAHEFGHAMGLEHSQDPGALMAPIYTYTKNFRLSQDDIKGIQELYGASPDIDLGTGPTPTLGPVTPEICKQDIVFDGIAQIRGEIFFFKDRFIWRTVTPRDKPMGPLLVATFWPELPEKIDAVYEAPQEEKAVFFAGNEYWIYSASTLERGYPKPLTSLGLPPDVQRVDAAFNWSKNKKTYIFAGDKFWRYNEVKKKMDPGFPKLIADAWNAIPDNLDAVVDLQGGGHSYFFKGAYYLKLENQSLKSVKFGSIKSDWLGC
READOUT TYPE: pIC50
Friendly reminder that pIC50 comes from taking -log10 of the concentration in mol/L.

Asked: Reported pIC50 for COc1ccc(-c2ccc(S(=O)(=O)NC(C(=O)O)C3CCN(C(=O)CC(C)C)CC3)cc2)cc1 (stereo not drawn) : what is it?
Given back: 8.49

Asked: Likewise for COCCOC(=O)N1CCC(C(NS(=O)(=O)c2ccc(-c3ccccc3)cc2)C(=O)O)CC1 (stereo not drawn) ?
Given back: 7.62

Kindly consider the entry below.
Asked: Reported pIC50 for COCCOC(=O)N1CCC(C(NS(=O)(=O)c2ccc(-c3ccc(SC)cc3)cc2)C(=O)O)CC1 (stereo not drawn) : what is it?
Given back: 9.40
